TARGET: MAGL (Homo sapiens, UniProt Q99685)
Sequence (Q99685 1-303): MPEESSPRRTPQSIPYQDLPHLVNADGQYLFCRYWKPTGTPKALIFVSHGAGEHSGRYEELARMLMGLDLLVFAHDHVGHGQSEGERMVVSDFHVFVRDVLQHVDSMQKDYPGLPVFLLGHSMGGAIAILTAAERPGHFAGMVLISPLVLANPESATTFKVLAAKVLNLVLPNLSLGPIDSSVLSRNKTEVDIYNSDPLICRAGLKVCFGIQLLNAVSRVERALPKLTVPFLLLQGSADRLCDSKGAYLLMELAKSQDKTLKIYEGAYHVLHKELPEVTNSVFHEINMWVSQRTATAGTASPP
ASSAY_NAME: 2-AG assay, MAGL inhibitory activity (human)
Type: biochemical
pIC50: −log10 of the molar value.

{"MOLECULE": "COc1cccc(-c2ccc(N3C[C@H](N4CCN(C(=O)c5ccco5)CC4)CC3=O)cc2)c1 [I]", "pIC50": 8.19}

----------
TARGET: MAGL (Mus musculus, UniProt O35678)
Sequence (O35678 whole entry): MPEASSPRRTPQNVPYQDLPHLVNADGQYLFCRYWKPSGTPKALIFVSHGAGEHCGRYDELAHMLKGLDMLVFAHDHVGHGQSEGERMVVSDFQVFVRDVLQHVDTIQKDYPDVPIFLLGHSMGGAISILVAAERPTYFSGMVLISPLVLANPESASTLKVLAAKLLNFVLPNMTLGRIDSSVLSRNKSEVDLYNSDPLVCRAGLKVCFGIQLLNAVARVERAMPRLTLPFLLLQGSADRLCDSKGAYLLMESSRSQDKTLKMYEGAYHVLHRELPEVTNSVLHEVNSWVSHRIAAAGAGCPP

{"STRUCTURE_STRING": "O=C(c1ccco1)N1CCN([C@@H]2CC(=O)N(c3ccc(-c4cccc(F)c4)cc3)C2)CC1", "IC50 (nM)": 11.3}
